Tested on: Arabidopsis thaliana plants
assay_name: SOA1 phenotypic analysis of herbicide-treated plants (incl. MIC/Tmic)
Format: in vivo
applied_conditions: herbicide sprayed on 21-day plants; numeric value standardized to mock treated
Can you tell me matureLeafAnthocyanins, Dev. for the items I'm about to list?
// response body must contain only the number

Fill blank: measured matureLeafAnthocyanins, Dev. of the compound CP(=O)(O)CCC(N)C(=O)O (stereo not drawn) [Glufosinate] is ____.
0

Requested read-out: matureLeafAnthocyanins, Dev.. Entry: C[n+]1ccc(-c2cc[n+](C)cc2)cc1 [Paraquat]
0

Requested read-out: matureLeafAnthocyanins, Dev.. Entry: CN(C)C(=O)Nc1ccc(Cl)c(Cl)c1 [Diuron]
0

Any idea what its matureLeafAnthocyanins, Dev. is? The compound is O=C(O)COc1ccc(Cl)cc1Cl [2,4-D]
1

Please report the recorded matureLeafAnthocyanins, Dev. for c1cc[n+]2c(c1)-c1cccc[n+]1CC2 [Diquat] .
0

I would be grateful if you could share the reported matureLeafAnthocyanins, Dev. for O=C(O)CNCP(=O)(O)O [Glyphosate] .
3

---

System: Arabidopsis thaliana plants
assay_name: SOA1 phenotypic analysis of herbicide-treated plants (incl. MIC/Tmic)
Type: in vivo
applied_conditions: herbicide sprayed on 21-day plants; numeric value standardized to mock treated
endpoint_label: newLeafNecrosis, Dev.
Lab note: record the figure alone, no unit after it.

// query newLeafNecrosis, Dev. value for entry CP(=O)(O)CCC(N)C(=O)O (stereo not drawn) [Glufosinate]
0

newLeafNecrosis, Dev. lookup needed for `CN(C)C(=O)Nc1ccc(Cl)c(Cl)c1` , thanks.
4

Param item = `O=C(O)COc1ccc(Cl)cc1Cl` ; retrieve measured newLeafNecrosis, Dev..
0

Fill blank: measured newLeafNecrosis, Dev. of the molecule `c1cc[n+]2c(c1)-c1cccc[n+]1CC2` is ____.
4

# newLeafNecrosis, Dev. lookup, item `C[n+]1ccc(-c2cc[n+](C)cc2)cc1`
4

Would you mind telling me what newLeafNecrosis, Dev. value was observed for O=C(O)CNCP(=O)(O)O [Glyphosate] ?
0

---

Give pointedLeaves, Dev. for every item shown.
System: Arabidopsis thaliana plants
assay_name: SOA1 phenotypic analysis of herbicide-treated plants (incl. MIC/Tmic)
Assay type: in vivo
applied_conditions: herbicide sprayed on 21-day plants; numeric value standardized to mock treated

Request - read-out pointedLeaves, Dev. | tested on Arabidopsis thaliana plants | compound CP(=O)(O)CCC(N)C(=O)O (stereo not drawn) [Glufosinate]
1

Give the reported pointedLeaves, Dev. for O=C(O)CNCP(=O)(O)O [Glyphosate] (system: Arabidopsis thaliana plants).
1

Test system Arabidopsis thaliana plants; read-out pointedLeaves, Dev.; what value for c1cc[n+]2c(c1)-c1cccc[n+]1CC2 [Diquat] ?
1

Return pointedLeaves, Dev. measured with Arabidopsis thaliana plants given this compound: CN(C)C(=O)Nc1ccc(Cl)c(Cl)c1 [Diuron]
1

Please tell me: pointedLeaves, Dev. of C[n+]1ccc(-c2cc[n+](C)cc2)cc1 [Paraquat] , system Arabidopsis thaliana plants?
1

Under Arabidopsis thaliana plants: pointedLeaves, Dev. value of O=C(O)COc1ccc(Cl)cc1Cl [2,4-D] ?
0

---

Test system: Arabidopsis thaliana plants
assay_name: SOA1 phenotypic analysis of herbicide-treated plants (incl. MIC/Tmic)
Type: in vivo
applied_conditions: score for time to full symptoms at minimum inhibitory concentration
Give measured tMic, Dev. for each item. Keep answers brief.
Please give only the number in your answer, with no unit.

Quick one: tMic, Dev. of `c1cc[n+]2c(c1)-c1cccc[n+]1CC2` ?
2

Requested read-out: tMic, Dev.. Entry: `C[n+]1ccc(-c2cc[n+](C)cc2)cc1`
2

Using the record for `O=C(O)COc1ccc(Cl)cc1Cl` , report its tMic, Dev..
2

I am curious: what tMic, Dev. value has been reported for CP(=O)(O)CCC(N)C(=O)O (stereo not drawn) [Glufosinate] ?
1

Request the reported tMic, Dev. associated with O=C(O)CNCP(=O)(O)O [Glyphosate]
2

For `CN(C)C(=O)Nc1ccc(Cl)c(Cl)c1` , what is its reported tMic, Dev.?
1
